Cited source: the supplement of paper PMC11061612

Measured combination Emax of individual entries
# System: SW780 (Bladder Carcinoma)
# assay.explanation: combination Emax (second highest fraction inhibited in the dose matrix, 72 h); higher = more inhibition; extreme values may be limits of the assay
measurement.label: combination Emax

# compound, experimental.value
data = [
    ("COc1cccc(OCCCN)c1-c1cc(Nc2cnc(C#N)cn2)n[nH]1 [Prexasertib] + CCc1c2c(nc3ccc(O)cc13)-c1cc3c(c(=O)n1C2)COC(=O)[C@]3(O)CC [SN-38] (first compound max 1 µM, 7x7, partner max 0.3 µM)", 0.969),
    ("CC(=O)c1c(C)c2cnc(Nc3ccc(N4CCNCC4)cn3)nc2n(C2CCCC2)c1=O [Palbociclib] + Cn1cnc2c(F)c(Nc3ccc(Br)cc3Cl)c(C(=O)NOCCO)cc21 [Selumetinib] (first compound max 10 µM, 7x7, partner max 10 µM)", 0.356),
    ("Cc1c2c(nn1C)CSCc1cc(n(C)n1)CSc1cc(c3ccccc3c1)OCCCc1c(C(=O)O)n(C)c3c-2c(Cl)ccc13 [AZD5991] + C[C@@H](Nc1cc(F)cc(F)c1)c1cc(C(=O)N(C)C)cc2c(=O)cc(N3CCOCC3)oc12 [AZD8186] (first compound max 1 µM, 7x7, partner max 3 µM)", 0.228),
    ("COc1cccc(OCCCN)c1-c1cc(Nc2cnc(C#N)cn2)n[nH]1 [Prexasertib] + O=C(c1cc(Cc2n[nH]c(=O)c3ccccc23)ccc1F)N1CCN(C(=O)C2CC2)CC1 [Olaparib] (first compound max 1 µM, 7x7, partner max 10 µM)", 0.23),
]

----------
Quick list: combination Emax per entry.
# Tested on: LS-513 (Colorectal Carcinoma)
# assay.explanation: combination Emax (second highest fraction inhibited in the dose matrix, 72 h); higher = more inhibition; extreme values may be limits of the assay
measurement.label: combination Emax

# compound, experimental.value
data = [
    ("COc1cc2c(cc1OCCCCCOc1cc3c(cc1OC)C(=O)N1C=C(C)C[C@H]1C=N3)N=C[C@@H]1CC(C)=CN1C2=O [SG3199] + O=C(c1cc(Cc2n[nH]c(=O)c3ccccc23)ccc1F)N1CCN(C(=O)C2CC2)CC1 [Olaparib] (first compound max 0.001 µM, 7x7, partner max 10 µM)", 0.155),
    ("O=C(c1cc(Cc2n[nH]c(=O)c3ccccc23)ccc1F)N1CCN(C(=O)C2CC2)CC1 [Olaparib] + COc1nnc2ccc(N3CCC(c4ccc(OCCN5CCN(C)C(=O)[C@H]5C)cc4)CC3)nn12 [AZD5153] (first compound max 10 µM, 7x7, partner max 1 µM)", 0.591),
    ("C=CCn1c(=O)c2cnc(Nc3ccc(N4CCN(C)CC4)cc3)nc2n1-c1cccc(C(C)(C)O)n1 [AZD1775] + O=C(c1cc(Cc2n[nH]c(=O)c3ccccc23)ccc1F)N1CCN(C(=O)C2CC2)CC1 [Olaparib] (first compound max 1 µM, partner max 10 µM)", 0.827),
    ("N#Cc1cnc(Nc2cc(NC[C@H]3CNCCO3)c(C(F)(F)F)cn2)cn1 [SRA737] + CCc1c2c(nc3ccc(O)cc13)-c1cc3c(c(=O)n1C2)COC(=O)[C@]3(O)CC [SN-38] (first compound max 10 µM, 7x7, partner max 0.3 µM)", 0.742),
]

----------
# System: MDA-MB-157 (Breast Carcinoma)
# assay.explanation: combination Emax (second highest fraction inhibited in the dose matrix, 72 h); higher = more inhibition; extreme values may be limits of the assay

# molecule, combination Emax
measured = [
    ("CC1(C)CCC(CN2CCN(c3ccc(C(=O)NS(=O)(=O)c4ccc(NCC5CCOCC5)c([N+](=O)[O-])c4)c(Oc4cnc5[nH]ccc5c4)c3)CC2)=C(c2ccc(Cl)cc2)C1 [Venetoclax] + C1CN(CCC1(C(=O)N[C@@H](CCO)C2=CC=C(C=C2)Cl)N)C3=NC=NC4=C3C=CN4 [Capivasertib] (first compound max 1 µM, 7x7, partner max 3 µM)", 0.535),
    ("CCc1c2c(nc3ccc(O)cc13)-c1cc3c(c(=O)n1C2)COC(=O)[C@]3(O)CC [SN-38] + CN(C)CCCOc1ccc(-c2ccc3ncc4c(c3c2)n(C2CCOCC2)c(=O)n4C)cn1 [AZD0156] (first compound max 0.3 µM, 7x7, partner max 1 µM)", 0.742),
    ("CC1(C)CCC(CN2CCN(c3ccc(C(=O)NS(=O)(=O)c4ccc(NCC5CCOCC5)c([N+](=O)[O-])c4)c(Oc4cnc5[nH]ccc5c4)c3)CC2)=C(c2ccc(Cl)cc2)C1 [Venetoclax] + CN(C)CCCOc1ccc(-c2ccc3ncc4c(c3c2)n(C2CCOCC2)c(=O)n4C)cn1 [AZD0156] (first compound max 1 µM, 7x7, partner max 1 µM)", 0.596),
]
